# Measurement Target: Heat shock protein HSP90 (Homo sapiens, UniProt P07900+P08238)
# Experiment Notes: Inhibition of BODIPY-AG binding to human HSP90
# Assay type: protein assay

# Compound, EC50
measured = [
    ("C=CCNc1c(O)cc2c(O)c1C[C@@H](C)C[C@H](OC)[C@H](O)[C@@H](C)/C=C(\\C)[C@H](OC(N)=O)[C@@H](OC)/C=C\\C=C(/C)C(=O)N2.Cl [RETASPIMYCIN HYDROCHLORIDE]", "0.063 µM"),
    ("Nc1ncnc2c1ncn2[C@@H]1O[C@H](COP(=O)(O)OP(=O)(O)OP(=O)(O)O)[C@@H](O)[C@H]1O [ADENOSINE TRIPHOSPHATE]", "1500 µM"),
    ("CO[C@H]1/C=C\\C=C(/C)C(=O)Nc2cc(O)c(NC[C@H](O)CO)c(c2O)C[C@@H](C)C[C@H](OC)[C@H](O)[C@@H](C)/C=C(\\C)[C@@H]1OC(N)=O.Cl", "0.091 µM"),
    ("CO[C@H]1/C=C\\C=C(/C)C(=O)NC2=CC(=O)C(NC[C@H](O)CO)=C(C[C@@H](C)C[C@H](OC)[C@H](O)[C@@H](C)/C=C(\\C)[C@@H]1OC(N)=O)C2=O", "0.066 µM"),
    ("C=CCNc1c(O)cc2nc3oc2c1C[C@@H](C)C[C@H](OC)[C@H](O)[C@@H](C)/C=C(\\C)[C@H](OC(N)=O)[C@@H](OC)/C=C\\C=C\\3C.Cl", "> 10 µM"),
]
